# TARGET: T1, His-tagged human TIGIT (human, UniProt Q495A1 22-141)
# T1 construct: SPR analyte; also called human TIGIT protein; not shown: His tag
# T1 sequence: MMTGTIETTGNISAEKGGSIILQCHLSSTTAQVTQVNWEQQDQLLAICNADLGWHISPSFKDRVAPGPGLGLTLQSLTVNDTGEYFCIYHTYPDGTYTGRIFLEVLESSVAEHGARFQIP
# TEST NAME: SPR experiment 2, IgG from HEK293 supernatant captured
MEASUREMENT NAME: koff (s⁻¹)
The reply should be a number in s⁻¹, with the unit left off.

Per the records, this binder ( humanized TIGIT-19 antibody 19VH4.M4 + 19VL1 (antibody, V domains shown, Full-length IgG, tested as HEK293 supernatant) VH: QVQLVQSGAEVKKPGASVKVSCKASGYAFSRYSMYWVRQAPGQGLEWIAFIDPYSGGSTYNQRFRGKATLTVDTSISTAYMELSRLRSDDTAVYYCARGGDYGWYLGVWGQGTLVTVSS VL: DIQMTQSPSSLSASVGDRVTITCRPSENIYTYLSWYQQKPGKAPKLLIYNAKTLPEGVPSRFSGSGSGTDFTLTISSLQPEDFATYYCQHHYGNPLTFGQGTKVEIK ) has koff equal to 0.00013

Per the records, this binder ( TIGIT-19 chimeric antibody (antibody, human IgG1, kappa, V domains shown, also called 19VH + 19VL) VH: QVQLQQPGPELVKPGTSVMLSCKASGYAFSRYSMYWVKQSHGKSLEWIAFIDPYNGGSTYNQRFRGKATLTVDKSSSTAYMHLNTLTSDDSAVYYCARGGDYGWYLGVWGAGTTVTVSS VL: DIQMTQSPASLSASVGETVTITCRPSENIYTYLSWYQQKRGKSPQLLVYNAKTLPENVPSRFSGSGSGTQFSLKIDSLQPEDFGNYYCQHHYGNPLTFGAGTKLELKR ) has koff equal to 0.00015

Looking up humanized TIGIT-19 antibody 19VH4 + 19VL1 (antibody, V domains shown, Full-length IgG, tested as HEK293 supernatant) VH: QVQLVQSGAEVKKPGASVKVSCKASGYAFSRYSMYWVRQAPGQGLEWIAFIDPYNGGSTYNQRFRGKATLTVDTSISTAYMELSRLRSDDTAVYYCARGGDYGWYLGVWGQGTLVTVSS VL: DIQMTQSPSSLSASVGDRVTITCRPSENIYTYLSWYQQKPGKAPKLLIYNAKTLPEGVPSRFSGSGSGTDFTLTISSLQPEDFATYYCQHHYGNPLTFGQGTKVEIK , I see its koff listed as 3.3e-05
